Form field: Ki (one value per entry).
target: adenosine A2A receptor (Homo sapiens)
Sequence (P29274 whole entry): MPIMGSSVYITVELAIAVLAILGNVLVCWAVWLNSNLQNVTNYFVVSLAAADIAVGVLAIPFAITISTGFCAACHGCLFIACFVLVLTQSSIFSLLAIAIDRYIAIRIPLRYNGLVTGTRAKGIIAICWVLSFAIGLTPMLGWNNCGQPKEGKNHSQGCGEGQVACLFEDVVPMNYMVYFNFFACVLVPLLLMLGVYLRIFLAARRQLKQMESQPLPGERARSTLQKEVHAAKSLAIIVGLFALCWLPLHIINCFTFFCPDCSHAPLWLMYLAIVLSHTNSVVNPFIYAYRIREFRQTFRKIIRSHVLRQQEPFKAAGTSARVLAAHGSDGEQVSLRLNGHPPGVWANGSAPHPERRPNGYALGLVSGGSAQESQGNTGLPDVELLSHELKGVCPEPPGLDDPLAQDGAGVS
Where a name gives a salt, the structure may show the parent alone.
Measured property: Ki

{"Molecule": "CN(C)[C@@H]1CCN(c2nc(NCC(c3ccccc3)c3ccccc3)c3ncn([C@@H]4O[C@H](CO)[C@@H](O)[C@H]4O)c3n2)C1 [Example 22, trifluoroacetate]", "Measurement": "0.5 nM"}
{"Molecule": "OC[C@H]1O[C@@H](n2cnc3c(NCC(c4ccccc4)c4ccccc4)nc(N4CC[C@H](c5ccc(F)cc5)C4)nc32)[C@H](O)[C@@H]1O [Example 2, trifluoroacetate]", "Measurement": "610 nM"}
{"Molecule": "O=C(N[C@@H]1CCNC1)N[C@@H]1CCN(c2nc(NCC(c3ccccc3)c3ccccc3)c3ncn([C@@H]4O[C@H](CO)[C@@H](O)[C@H]4O)c3n2)C1 [Example 11, trifluoroacetate]", "Measurement": "12 nM"}
{"Molecule": "OC[C@H]1O[C@@H](n2cnc3c(NCC(c4ccccc4)c4ccccc4)nc(N4CC[C@@H](O)C4)nc32)[C@H](O)[C@@H]1O", "Measurement": "54 nM"}
{"Molecule": "N[C@@H]1CCN(c2nc(NCC(c3ccccc3)c3ccccc3)c3ncn([C@@H]4O[C@H](CO)[C@@H](O)[C@H]4O)c3n2)C1 [Example 7, trifluoroacetate]", "Measurement": "190 nM"}
